Test system: MS2 coat protein
method: apparent Kd, MS2 coat protein; higher = weaker binding; RNA-MaP array; theophylline 2 mM where present
measurement-context: ligand present: theophylline; designed as: ON switch for theophylline
property-measured: apparent Kd (nM)
Numbers only, in nM.

chain	value-unit	apparent Kd
UGUAACAUGAGGAUCACCCAUGUGAGUGAUACCAGAUUAGUAGUAGUCCCUUGGCAGCAUAUUGGGCGAGUGUAUAGUCUAUGCG	nM	221
UAAAAUAAAAGGGUGAAGGUAUAAACAGAUACCAGCCAGAUAACUGGCCCUUGGCAGCUGAAUGACAUGAGGAUCACCCAUGUCU	nM	33.3
AUCCUCUAGAAUGAUACCAGACCAAACAUGAGGAUCACCCAUGUAUCAGGCAAUUGUUACGUCCCUUGGCAGCAUGUAUGCCGAC	nM	28.1

Provide the reported apparent Kd of each entry below, same order.
1. AAUAACAUGAGGAUCACCCAUGUAAAAGAUACCAGAUGCAUGAUGAUCCCUUGGCAGCUUAAACGCGAUUGAUUACAAUCGCGAA
2. GCACGACAUGAGGAUCACCCAUGUGCAGAUACCAGUAAUGUAUAUUACCCUUGGCAGCUGAGUAGAUCUGGAGGGCUAUAGGUAA
3. ACUCGGUAUGUCUAAUACCGAGAGUAUGAUACCAGUAUGGUGACAUACCCUUGGCAGCAUGGGACAUGAGGAUCACCCAUGUGUU
4. UUUACAUGAGGAUCACCCAUGUGCCAUGAUACCAGACAUGAAAAUGUCCCUUGGCAGCAUGAGUGAUGCAUCCGAAAGGAUGUUU

Result string:
1. 91.8
2. 20.8
3. 505
4. 611
